- Assayed Target: Gamma-secretase (Homo sapiens) (UniProt Q96BI3+Q9NZ42+Q8WW43+P49768+Q92542+P49810)
- Assay Summary: Inhibition of gamma-secretase in HEK293 cells co-overexpressing NotchdeltaE assessed as inhibition of notch cleavage at 100 uM by luciferase reporter gene assay relative to DAPT
- Format: cell-based
- Details: values are per cent of control
Parameter: residual activity (%)

CCC(Cc1ccc(OC)c(CNC(=O)c2ccc(OCC(F)(F)F)cc2)c1)C(=O)O (stereo unspecified): 84

I = CCC(Cc1ccc(OC)c(C(=O)NCc2ccc(C(F)(F)F)cc2)c1)C(=O)O (stereo unspecified)
II = CCC(Cc1ccc(F)c(C(=O)NCc2ccc(C(F)(F)F)cc2)c1)C(=O)O (stereo unspecified)
Query string: For this pair, I and II , which shows a numerically higher residual activity? Refer to your chosen entry by its label in the reply.
Result string: II

1 = CCC(Cc1ccc(OC)c(CNC(=O)c2ccc(C(F)(F)F)cc2)c1)C(=O)O (stereo unspecified)
2 = CCC(Cc1ccc(F)c(C(=O)NCc2ccc(Oc3ccccc3)cc2)c1)C(=O)O (stereo unspecified)
Query string: Could you please tell me which of these two has the higher residual activity: 1 or 2 ? Which one? Tell me its label.
Result string: 2
(2: 6.8%, 1: 0%)

###

- Assayed Target: Gamma-secretase (Homo sapiens) (UniProt Q96BI3+Q9NZ42+Q8WW43+P49768+Q92542+P49810)
- Assay Summary: Inhibition of gamma-secretase in HEK293 cells co-overexpressing APP Swedish mutant assessed as inhibition of amyloid beta 42 production at 1 uM by luciferase reporter gene assay relative to DAPT
- Type: cell-based
- Details: values are per cent of control
Parameter: residual activity (%)

CCC(Cc1ccc(F)c(C(=O)NCc2ccc(Oc3ccccc3)cc2)c1)C(=O)O (centres undefined): 99.7
CCC(Cc1ccc(F)c(C(=O)NCc2ccc(OC(F)(F)F)cc2)c1)C(=O)O (centres undefined): 87.4
COc1ccc(CCC(=O)O)cc1CNC(=O)c1ccc(C(F)(F)F)cc1: 102
CCC(Cc1ccc(OC)c(CNC(=O)c2ccc(OCC(F)(F)F)cc2)c1)C(=O)O (centres undefined): 119
CCC(Cc1ccc(OC)c(C(=O)NCc2ccc(C(F)(F)F)cc2)c1)C(=O)O (centres undefined): 88.5

a = CCC(Cc1ccc(OC)c(CNC(=O)c2ccc(C(F)(F)F)cc2)c1)C(=O)O (centres undefined)
b = CCC(Cc1ccc(F)c(C(=O)NCc2ccc(C(F)(F)F)cc2)c1)C(=O)O (centres undefined)
Query string: Lab note: record which item had the higher residual activity, a or b . Use the label to indicate which entry you chose.
Result string: a

###

- Assayed Target: Gamma-secretase
- Assay Summary: Inhibition of gamma-secretase in HEK293 cells co-overexpressing APP Swedish mutant assessed as inhibition of amyloid beta 40 production by luciferase reporter gene assay
- Assay type: cell-based, Homo sapiens
pIC50: −log10 of the molar value.
Parameter: pIC50

CC[C@H](Cc1ccc(OC)c(C(=O)NCc2ccc(C(F)(F)F)cc2)c1)C(=O)O: 4.42

A = CC/C(=C\c1ccc(OC)c(C(=O)NCc2ccc(C(F)(F)F)cc2)c1)C(=O)O
B = CSc1ccc(/C=C2/C(C)=C(CC(=O)O)c3cc(F)ccc32)cc1 [SULINDAC SULFIDE]
Query string: Which shows the larger pIC50 value: A or B ? Identify your selection by its label.
Result string: A
